Quick list: Kd per entry.
Target: T1, Cynomolgus MCSP D3 (cynomolgus, UniProt Q6UVK1 1582-2224 (human entry), limits assumed)
T1 construct: Soluble analyte in SPR
T1 chain: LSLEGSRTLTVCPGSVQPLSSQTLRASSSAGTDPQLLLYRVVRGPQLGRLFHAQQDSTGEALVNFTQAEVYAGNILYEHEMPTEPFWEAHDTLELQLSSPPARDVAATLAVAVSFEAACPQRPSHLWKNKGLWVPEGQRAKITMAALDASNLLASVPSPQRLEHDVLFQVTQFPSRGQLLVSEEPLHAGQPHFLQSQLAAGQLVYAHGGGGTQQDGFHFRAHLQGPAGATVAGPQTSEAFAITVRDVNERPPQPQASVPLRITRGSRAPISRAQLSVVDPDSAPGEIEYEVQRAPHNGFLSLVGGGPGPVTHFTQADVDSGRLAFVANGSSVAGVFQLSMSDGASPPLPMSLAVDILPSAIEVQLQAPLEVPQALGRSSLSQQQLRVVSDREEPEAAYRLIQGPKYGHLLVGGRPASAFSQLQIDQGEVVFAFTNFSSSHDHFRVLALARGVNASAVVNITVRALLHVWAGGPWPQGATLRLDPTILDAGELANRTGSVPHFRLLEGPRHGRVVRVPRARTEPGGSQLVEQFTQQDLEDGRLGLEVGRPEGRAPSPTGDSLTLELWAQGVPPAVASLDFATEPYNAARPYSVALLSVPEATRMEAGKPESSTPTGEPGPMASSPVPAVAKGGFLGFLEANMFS
Assay: SPR Biacore T200, 25 C, IgG captured on anti-human Fab, MCSP D3 as analyte, 1:1 Langmuir fit
# output: bare number, implied unit nM

Some solved cases for reference:
M4-3 (A7) ML2 (G3) (antibody, human IgG1, V domains shown) VH: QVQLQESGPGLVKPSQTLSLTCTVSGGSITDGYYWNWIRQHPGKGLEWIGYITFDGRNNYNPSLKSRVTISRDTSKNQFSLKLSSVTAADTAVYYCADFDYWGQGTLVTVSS VL: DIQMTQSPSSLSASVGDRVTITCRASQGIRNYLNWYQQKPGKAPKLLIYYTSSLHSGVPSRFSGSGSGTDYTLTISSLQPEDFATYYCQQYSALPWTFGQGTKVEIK    1.5
M4-3 ML2 (parental) (antibody, human IgG1, kappa, V domains shown, Non-matured parental humanized IgG; also called humanized antibody M4-3 ML2) VH: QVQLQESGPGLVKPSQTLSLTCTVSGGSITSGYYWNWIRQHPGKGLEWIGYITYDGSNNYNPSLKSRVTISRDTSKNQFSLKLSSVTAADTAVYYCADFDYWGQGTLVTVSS VL: DIQMTQSPSSLSASVGDRVTITCRASQGIRNYLNWYQQKPGKAPKLLIYYTSSLHSGVPSRFSGSGSGTDFTLTISSLQPEDFATYYCQQYSKLPWTFGQGTKVEIKR    82.5

Please find the next binder below.
Bench note: what Kd did M4-3 (B8) ML2 (antibody, human IgG1, V domains shown) VH: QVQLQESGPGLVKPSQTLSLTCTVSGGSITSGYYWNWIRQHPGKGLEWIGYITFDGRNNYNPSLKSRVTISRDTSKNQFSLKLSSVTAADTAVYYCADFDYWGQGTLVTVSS VL: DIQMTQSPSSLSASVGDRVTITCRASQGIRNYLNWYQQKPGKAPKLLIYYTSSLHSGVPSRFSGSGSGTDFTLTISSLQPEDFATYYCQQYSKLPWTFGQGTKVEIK show?
28.8

The values you see were collected from patent US20140242083A1.
